What Ki was measured for each of the following?
Note: unit µM is implicit; provide only the numeric part.

# value lookup — system TrwD (Escherichia coli, UniProt O50338), readout Ki, item CCCCCCCCCC#CCCC#CC(=O)O
43.8

Find the measured Ki: item CCCCCCCCCCCCCC#CC(=O)O , target or system TrwD (Escherichia coli, UniProt O50338).
29.7

Checklist item: Ki tested on TrwD (Escherichia coli, UniProt O50338), entry CCCCC/C=C\C/C=C\CCCCCCCC(=O)O , value?
20.9

Quick check: Ki on TrwD (Escherichia coli, UniProt O50338), item CCCCCCCCCCCCCCCC#CC(=O)O ?
29.8

Every entry's value here was drawn from paper PMC4908816.
